- System: KIF5B-RET (Homo sapiens, UniProt P07949)
- Sequence (P07949 713-1114): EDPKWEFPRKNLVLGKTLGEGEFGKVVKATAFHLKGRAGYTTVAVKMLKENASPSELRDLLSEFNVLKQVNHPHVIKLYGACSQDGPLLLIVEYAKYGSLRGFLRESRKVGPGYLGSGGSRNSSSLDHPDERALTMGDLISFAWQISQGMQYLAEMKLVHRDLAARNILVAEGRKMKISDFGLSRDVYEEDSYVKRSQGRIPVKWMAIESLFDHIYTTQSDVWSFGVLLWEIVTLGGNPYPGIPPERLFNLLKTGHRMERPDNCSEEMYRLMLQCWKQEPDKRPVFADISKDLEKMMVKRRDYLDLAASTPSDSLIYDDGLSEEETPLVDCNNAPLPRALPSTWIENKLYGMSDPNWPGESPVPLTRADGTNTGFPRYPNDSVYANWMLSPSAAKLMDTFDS
- Sequence (P33176 2-575 partner): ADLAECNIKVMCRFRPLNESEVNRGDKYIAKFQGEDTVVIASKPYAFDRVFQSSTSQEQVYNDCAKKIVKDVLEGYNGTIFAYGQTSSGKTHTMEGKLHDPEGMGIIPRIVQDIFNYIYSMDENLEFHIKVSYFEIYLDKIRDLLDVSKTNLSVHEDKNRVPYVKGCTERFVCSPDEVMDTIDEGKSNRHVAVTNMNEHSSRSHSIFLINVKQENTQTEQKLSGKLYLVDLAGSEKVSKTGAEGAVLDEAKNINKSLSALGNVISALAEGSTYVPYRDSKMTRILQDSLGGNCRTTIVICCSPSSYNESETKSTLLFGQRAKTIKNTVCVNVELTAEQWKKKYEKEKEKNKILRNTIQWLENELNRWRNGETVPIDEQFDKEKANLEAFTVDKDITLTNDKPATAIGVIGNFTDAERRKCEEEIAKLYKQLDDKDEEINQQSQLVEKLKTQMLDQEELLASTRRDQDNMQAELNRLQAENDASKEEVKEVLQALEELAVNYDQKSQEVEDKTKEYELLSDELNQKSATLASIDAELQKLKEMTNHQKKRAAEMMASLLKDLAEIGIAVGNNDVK
- Method: Kinase panel inhibition, radiolabeled [γ-33P] ATP (Reaction Biology Corp)
- Format: biochemical
- Setup conditions: read-out: Enzymatic inhibitory activity (IC50) nM KIF5B-RET

{"columns": ["Compound", "Qualifier sign", "IC50 [nM]"],
 "data": [
  ["Nc1cc(-c2ccc(N3CC(Oc4cccc(F)c4)C3)nc2)c2nccnc2c1 [Example 1]", "=", 2.2],
  ["CCNc1cc(-c2ccc(N3CC(Oc4cccc(F)c4)C3)nc2)c2nccnc2c1 [Example 3]", "<", 0.5]
]}

----------
- System: RET (G810S/M918T) (Homo sapiens, UniProt P07949, G810S/M918T)
- Construct: purchased Reaction Biology Corp
- Sequence (P07949 29-1114 G810S/M918T): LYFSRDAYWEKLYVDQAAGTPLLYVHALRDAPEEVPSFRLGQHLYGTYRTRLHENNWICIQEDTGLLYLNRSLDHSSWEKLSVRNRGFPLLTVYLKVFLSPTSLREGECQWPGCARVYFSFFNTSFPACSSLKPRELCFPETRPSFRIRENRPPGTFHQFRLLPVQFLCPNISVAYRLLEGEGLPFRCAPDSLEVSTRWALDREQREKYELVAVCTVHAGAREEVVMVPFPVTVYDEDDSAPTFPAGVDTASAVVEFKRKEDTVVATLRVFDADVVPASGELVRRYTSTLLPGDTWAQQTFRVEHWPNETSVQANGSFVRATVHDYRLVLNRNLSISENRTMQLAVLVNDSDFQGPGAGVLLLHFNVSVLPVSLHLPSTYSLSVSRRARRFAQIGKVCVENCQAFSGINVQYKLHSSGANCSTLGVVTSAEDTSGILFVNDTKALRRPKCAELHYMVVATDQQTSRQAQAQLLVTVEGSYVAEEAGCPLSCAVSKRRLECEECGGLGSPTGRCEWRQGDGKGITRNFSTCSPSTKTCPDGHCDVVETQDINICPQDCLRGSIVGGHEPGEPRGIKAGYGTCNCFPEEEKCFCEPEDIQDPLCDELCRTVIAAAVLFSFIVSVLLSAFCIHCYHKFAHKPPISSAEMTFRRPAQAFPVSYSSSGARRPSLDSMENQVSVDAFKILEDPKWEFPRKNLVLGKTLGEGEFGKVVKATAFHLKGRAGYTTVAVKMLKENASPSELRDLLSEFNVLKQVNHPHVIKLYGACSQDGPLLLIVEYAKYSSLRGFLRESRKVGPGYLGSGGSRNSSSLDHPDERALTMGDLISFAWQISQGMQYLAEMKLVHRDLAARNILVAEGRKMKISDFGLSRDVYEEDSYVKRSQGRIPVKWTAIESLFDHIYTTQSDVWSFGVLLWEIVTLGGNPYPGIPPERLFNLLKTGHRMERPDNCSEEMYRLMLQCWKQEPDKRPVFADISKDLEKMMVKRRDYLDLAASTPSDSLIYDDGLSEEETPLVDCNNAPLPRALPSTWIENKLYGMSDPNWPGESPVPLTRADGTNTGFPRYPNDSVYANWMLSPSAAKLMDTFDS
- Method: Kinase panel inhibition, radiolabeled [γ-33P] ATP (Reaction Biology Corp)
- Type: biochemical
- Setup conditions: compound at 30uM; ATP 1 µM; Data 2; read-out: % Enzyme Activity (relative to DMSO controls) RET (G810S/M918T) Data 2
Response field label takes Y when remaining activity at 30 µM is strictly below 90% and N in all other cases.

{"columns": ["Molecule", "Label"],
 "data": [
  ["CC(C)Nc1cc(-c2ccc(F)nc2)c2nccnc2c1 [Intermediate Compound 8]", "Y"],
  ["CCCCNc1cc(-c2ccc(F)nc2)c2nccnc2c1 [Intermediate Compound 9]", "Y"],
  ["O=C(Nc1cc(Br)c2nccnc2c1)c1ccco1 [Intermediate Compound 11]", "Y"],
  ["O=C(Nc1cc(Br)c2nccnc2c1)c1ccccn1 [Intermediate Compound 12, N-(8-Bromoquinoxalin-6-yl)picolinamide]", "N"]
]}

----------
- System: RET-CCDC6 (PTC1) (Homo sapiens)
- Construct: purchased Reaction Biology Corp
- Sequence (P07949 whole entry, looked up): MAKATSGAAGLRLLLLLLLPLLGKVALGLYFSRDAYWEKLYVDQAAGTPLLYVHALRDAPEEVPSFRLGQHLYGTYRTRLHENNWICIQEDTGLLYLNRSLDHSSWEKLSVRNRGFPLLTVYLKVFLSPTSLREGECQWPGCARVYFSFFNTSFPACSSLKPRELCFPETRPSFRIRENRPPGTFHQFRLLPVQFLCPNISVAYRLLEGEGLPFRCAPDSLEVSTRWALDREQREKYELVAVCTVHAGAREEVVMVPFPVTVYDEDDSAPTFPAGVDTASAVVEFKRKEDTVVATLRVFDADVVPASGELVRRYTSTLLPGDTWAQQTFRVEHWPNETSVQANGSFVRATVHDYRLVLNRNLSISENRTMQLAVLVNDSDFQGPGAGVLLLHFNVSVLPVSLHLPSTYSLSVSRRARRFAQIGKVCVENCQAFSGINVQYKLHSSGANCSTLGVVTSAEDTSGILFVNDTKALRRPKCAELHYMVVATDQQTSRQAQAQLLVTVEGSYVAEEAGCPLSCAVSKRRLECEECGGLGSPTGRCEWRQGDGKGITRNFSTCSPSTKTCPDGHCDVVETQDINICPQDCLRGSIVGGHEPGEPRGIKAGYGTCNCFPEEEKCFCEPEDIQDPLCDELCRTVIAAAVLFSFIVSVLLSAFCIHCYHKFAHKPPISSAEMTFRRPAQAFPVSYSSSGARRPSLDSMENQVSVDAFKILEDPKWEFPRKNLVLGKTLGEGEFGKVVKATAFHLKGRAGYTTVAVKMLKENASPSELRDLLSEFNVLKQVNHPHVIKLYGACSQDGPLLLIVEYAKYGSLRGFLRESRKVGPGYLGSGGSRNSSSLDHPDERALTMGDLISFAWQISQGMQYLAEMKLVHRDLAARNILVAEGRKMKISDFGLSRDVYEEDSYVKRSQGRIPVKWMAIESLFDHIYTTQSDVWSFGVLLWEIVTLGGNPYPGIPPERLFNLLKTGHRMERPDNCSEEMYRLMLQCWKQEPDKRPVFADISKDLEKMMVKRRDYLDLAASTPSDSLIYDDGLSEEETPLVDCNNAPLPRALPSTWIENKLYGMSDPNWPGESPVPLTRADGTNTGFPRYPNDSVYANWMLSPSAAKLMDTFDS
- Method: Kinase panel inhibition, radiolabeled [γ-33P] ATP (Reaction Biology Corp)
- Assay type: biochemical
- Setup conditions: compound at 10 uM; ATP 1 µM; Data 2; read-out: % Enzyme Activity (relative to DMSO controls) RET-CCDC6 (PTC1) Data 2
Documented remaining activity at 10 µM across a set of compounds

{"columns": ["Test smiles", "remaining activity at 10 µM, %"],
 "data": [
  ["O=C(Nc1cc(-c2ccc(N3CC[C@H](NC(=O)c4ccccc4F)C3)nc2)c2nccnc2c1)c1ccco1", 1.33],
  ["CCCNc1cc(-c2ccc(N3CC(Oc4cccc(F)c4)C3)nc2)c2nccnc2c1", 1.31],
  ["O=C(Nc1cc(-c2ccc(N3CC(Oc4cccc(F)c4)C3)nc2)c2nccnc2c1)c1ccccn1", 3.74],
  ["CN1CCN(c2ccc(-c3cc(N)cc4nccnc34)cn2)CC1", 15.3],
  ["CCCCNc1cc(-c2ccc(N3CC[C@H](NC(=O)c4ccccc4F)C3)nc2)c2nccnc2c1", 1.1],
  ["Nc1cc(-c2ccc(N3CCN(c4ccccn4)CC3)nc2)c2nccnc2c1", 2.29],
  ["Nc1cc(-c2ccc(N3CC[C@H](NC(=O)c4ccccc4F)C3)nc2)c2nccnc2c1", 0.99],
  ["CCCNc1cc(-c2ccc(N3CC[C@H](NC(=O)c4ccccc4F)C3)nc2)c2nccnc2c1", 1.28],
  ["Nc1cc(-c2ccc(N3CC(Oc4cccc(F)c4)C3)nc2)c2nccnc2c1", 0.52],
  ["Nc1cc(-c2ccc(N3CCN(Cc4ccc(Br)cc4)CC3)nc2)c2nccnc2c1", 1.27],
  ["CCNc1cc(C#CCN2CCOCC2)c2nccnc2c1", 15.4],
  ["CCS(=O)(=O)N1CCN(c2ccc(-c3cc(N)cc4nccnc34)cn2)CC1", 3.03],
  ["CC(C)CNc1cc(-c2ccc(N3CC(Oc4cccc(F)c4)C3)nc2)c2nccnc2c1", 1.07],
  ["CCNc1cc(-c2ccc(N3CC(Oc4cccc(F)c4)C3)nc2)c2nccnc2c1", 0.91],
  ["Nc1cc(-c2cnc(N3CC(Oc4cccc(F)c4)C3)nc2)c2nccnc2c1", 1.07],
  ["CCNc1cc(-c2ccc(N3CC[C@H](NC(=O)c4ccccc4F)C3)nc2)c2nccnc2c1", 1.01],
  ["O=C(Nc1cc(-c2ccc(N3CC[C@H](NC(=O)c4ccccc4F)C3)nc2)c2nccnc2c1)c1ccccn1", 2.31]
]}

----------
- System: RET (G810S/M918T) (Homo sapiens, UniProt P07949, G810S/M918T)
- Construct: purchased Reaction Biology Corp
- Method: Kinase panel inhibition, radiolabeled [γ-33P] ATP (Reaction Biology Corp)
- Assay type: biochemical
- Setup conditions: compound at 30uM; ATP 1 µM; Data 1; read-out: % Enzyme Activity (relative to DMSO controls) RET (G810S/M918T) Data 1
Category scheme (remaining activity at 30 µM): lower range: < 20%; middle range: ≥ 20% and < 70%; upper range: ≥ 70%

{"columns": ["Compound", "Label"],
 "data": [
  ["Nc1cc(-c2cnc(Cl)nc2)c2nccnc2c1 [Intermediate Compound 16]", "middle range"],
  ["CCNc1cc(Br)c2nccnc2c1 [Intermediate Compound 18, 8-Bromo-N-ethylquinoxalin-6-amine]", "lower range"],
  ["CC(C)CNc1cc(-c2ccc(F)nc2)c2nccnc2c1 [Intermediate Compound 10]", "middle range"],
  ["CCCNc1cc(-c2ccc(F)nc2)c2nccnc2c1 [Intermediate Compound 7]", "middle range"],
  ["O=[N+]([O-])c1cc(-c2ccc(F)nc2)c2nccnc2c1 [Intermediate Compound 15]", "upper range"],
  ["O=C(Nc1cc(Br)c2nccnc2c1)c1ccco1 [Intermediate Compound 11]", "upper range"],
  ["O=[N+]([O-])c1cc(-c2ccc(N3CC(Oc4cccc(F)c4)C3)nc2)c2nccnc2c1", "middle range"],
  ["O=C(Nc1cc(-c2ccc(F)nc2)c2nccnc2c1)c1ccccn1 [Intermediate Compound 14]", "upper range"],
  ["CC(C)Nc1cc(-c2ccc(F)nc2)c2nccnc2c1 [Intermediate Compound 8]", "middle range"],
  ["Nc1cc(-c2ccc(F)nc2)c2nccnc2c1 [Intermediate Compound 4]", "middle range"],
  ["CCNc1cc(-c2ccc(F)nc2)c2nccnc2c1 [Intermediate Compound 6]", "lower range"],
  ["CNc1cc(-c2ccc(F)nc2)c2nccnc2c1 [Intermediate Compound 5]", "lower range"],
  ["O=C(Nc1cc(Br)c2nccnc2c1)c1ccccn1 [Intermediate Compound 12, N-(8-Bromoquinoxalin-6-yl)picolinamide]", "upper range"],
  ["CCCCNc1cc(-c2ccc(F)nc2)c2nccnc2c1 [Intermediate Compound 9]", "middle range"],
  ["CCCNc1cc(Br)c2nccnc2c1 [Intermediate Compound 19, 8-Bromo-N-propylquinoxalin-6-amine]", "middle range"],
  ["CC(C)CNc1cc(Br)c2nccnc2c1 [Intermediate Compound 22, 8-Bromo-N-isobutylquino xalin-6-amine]", "middle range"],
  ["CCCCNc1cc(Br)c2nccnc2c1 [Intermediate Compound 21, 8-Bromo-N-butylquinoxalin-6-amine]", "middle range"],
  ["CCN(CC)c1cc(-c2ccc(N3CC(Oc4cccc(F)c4)C3)nc2)c2nccnc2c1", "lower range"],
  ["O=C(Nc1cc(-c2ccc(F)nc2)c2nccnc2c1)c1ccco1 [Intermediate Compound 13]", "upper range"]
]}

----------
Documented remaining activity at 0.1 µM across a set of compounds
- System: RET(V804M) (Homo sapiens, UniProt P07949, V804M)
- Construct: purchased Reaction Biology Corp
- Sequence (P07949 29-1114 V804M): as the sequence (P07949 29-1114 G810S/M918T) above, with V776M, S782G, T890M counted along it
- Method: Kinase panel inhibition, radiolabeled [γ-33P] ATP (Reaction Biology Corp)
- Format: biochemical
- Setup conditions: compound at 0.1 uM; ATP 10 µM; read-out: % Enzyme Activity (relative to DMSO controls) V804M

{"columns": ["Test smiles", "System", "remaining activity at 0.1 µM (%)"],
 "data": [
  ["CCNc1cc(Nc2cc(C)[nH]n2)c2nccnc2c1", "RET(V804M) (Homo sapiens, UniProt P07949, V804M)", 88.7],
  ["O=C(Nc1cc(-c2ccc(N3CC(Oc4cccc(F)c4)C3)nc2)c2nccnc2c1)c1ccco1", "RET(V804M) (Homo sapiens, UniProt P07949, V804M)", 46],
  ["Nc1cc(-c2ccc(N3CC[C@H](NC(=O)c4ccccc4F)C3)nc2)c2nccnc2c1", "RET(V804M) (Homo sapiens, UniProt P07949, V804M)", 2.27],
  ["CCNc1cc(C#CCN2CCOCC2)c2nccnc2c1", "RET(V804M) (Homo sapiens, UniProt P07949, V804M)", 105],
  ["CCNc1cc(-c2ccc(N3CC[C@H](NC(=O)c4ccccc4F)C3)nc2)c2nccnc2c1", "RET(V804M) (Homo sapiens, UniProt P07949, V804M)", 2.27]
]}

----------
- System: RET (G810S/M918T) (Homo sapiens, UniProt P07949, G810S/M918T)
- Construct: purchased Reaction Biology Corp
- Method: Kinase panel inhibition, radiolabeled [γ-33P] ATP (Reaction Biology Corp)
- Type: biochemical
- Setup conditions: compound at 30uM; ATP 1 µM; Data 2; read-out: % Enzyme Activity (relative to DMSO controls) RET (G810S/M918T) Data 2
Response field label takes T when remaining activity at 30 µM is strictly below 20% and F in all other cases.

{"columns": ["Compound", "Label"],
 "data": [
  ["CCCCNc1cc(Br)c2nccnc2c1 [Intermediate Compound 21, 8-Bromo-N-butylquinoxalin-6-amine]", "F"],
  ["Nc1cc(-c2ccc(F)nc2)c2nccnc2c1 [Intermediate Compound 4]", "F"],
  ["CNc1cc(-c2ccc(F)nc2)c2nccnc2c1 [Intermediate Compound 5]", "T"],
  ["O=C(Nc1cc(-c2ccc(F)nc2)c2nccnc2c1)c1ccco1 [Intermediate Compound 13]", "F"],
  ["CCNc1cc(-c2ccc(F)nc2)c2nccnc2c1 [Intermediate Compound 6]", "T"],
  ["CCCNc1cc(-c2ccc(F)nc2)c2nccnc2c1 [Intermediate Compound 7]", "F"],
  ["CC(C)CNc1cc(-c2ccc(F)nc2)c2nccnc2c1 [Intermediate Compound 10]", "F"],
  ["CC(C)CNc1cc(Br)c2nccnc2c1 [Intermediate Compound 22, 8-Bromo-N-isobutylquino xalin-6-amine]", "F"],
  ["Nc1cc(-c2cnc(Cl)nc2)c2nccnc2c1 [Intermediate Compound 16]", "F"],
  ["O=[N+]([O-])c1cc(-c2ccc(F)nc2)c2nccnc2c1 [Intermediate Compound 15]", "F"],
  ["CCCNc1cc(Br)c2nccnc2c1 [Intermediate Compound 19, 8-Bromo-N-propylquinoxalin-6-amine]", "F"]
]}
